- Tested on: ATP;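 also: ATP exposure 15 min at 22 °C before imaging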
- procedure summary: switch fluorescence ratio, 500 uM ATP over buffer (Cy3 cluster intensity, sum of 5 cycles each) (fold (ratio)); higher = stronger signal-on switching upon ATP binding; sequences stand for … in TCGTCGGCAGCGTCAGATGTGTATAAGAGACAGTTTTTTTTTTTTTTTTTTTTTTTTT…TC
- condition label: aptamer strand: ATP DNA aptamer (quencher-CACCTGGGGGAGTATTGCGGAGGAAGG + anchor), 100 nM annealed; ATP concentration: 500 uM
Measured switch fluorescence ratio of individual entries

macromolecule sequence: GTGTTACGGG
switch fluorescence ratio: 0.985
--
macromolecule sequence: CGGTATAATT
switch fluorescence ratio: 0.999
--
macromolecule sequence: TTTTTTATCG
switch fluorescence ratio: 1
--
macromolecule sequence: AATTGATTTT
switch fluorescence ratio: 1.01
--
macromolecule sequence: CAATGAAATC
switch fluorescence ratio: 1.02
--
macromolecule sequence: GTCGGACTAG
switch fluorescence ratio: 1
--
macromolecule sequence: AATGGGGGG
switch fluorescence ratio: 0.986
--
macromolecule sequence: GCGGGGGACC
switch fluorescence ratio: 1.01
--
macromolecule sequence: GGGTTGACCC
switch fluorescence ratio: 0.993
--
macromolecule sequence: AGTGGGGCGT
switch fluorescence ratio: 1
--
macromolecule sequence: GTGTCCCCTG
switch fluorescence ratio: 0.981
--
macromolecule sequence: TAAAAGTGAG
switch fluorescence ratio: 1
--
macromolecule sequence: GCTAGCTGGT
switch fluorescence ratio: 0.989
--
macromolecule sequence: ATTCATGGGT
switch fluorescence ratio: 0.998
--
macromolecule sequence: GATACTGGGG
switch fluorescence ratio: 1.01
--
macromolecule sequence: TATGTTGGGG
switch fluorescence ratio: 0.957
--
macromolecule sequence: TTGGGGGGCG
switch fluorescence ratio: 1.01
--
macromolecule sequence: AAGATTAGTT
switch fluorescence ratio: 0.998
--
macromolecule sequence: GGGGGTATCG
switch fluorescence ratio: 0.967
--
macromolecule sequence: TGCTAAAGGG
switch fluorescence ratio: 0.984
--
macromolecule sequence: TCGTAACTTA
switch fluorescence ratio: 1.03
--
macromolecule sequence: ACTGCGAATT
switch fluorescence ratio: 1.07

====

- Test system: ATP;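 also: ATP exposure 15 min at 22 °C before imaging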
- procedure summary: switch fluorescence ratio, 500 uM ATP over buffer (Cy3 cluster intensity, sum of 5 cycles each) (fold (ratio)); higher = stronger signal-on switching upon ATP binding; sequences stand for … in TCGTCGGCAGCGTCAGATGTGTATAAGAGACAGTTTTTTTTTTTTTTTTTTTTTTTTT…TC
- condition label: aptamer strand: ATP DNA aptamer (quencher-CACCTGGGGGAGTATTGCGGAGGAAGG + anchor), 100 nM annealed; ATP concentration: 500 uM
Listed below: switch fluorescence ratio values for each entry.

macromolecule sequence: AGAGGAATTC
experimental target: ATP;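 also: ATP exposure 15 min at 22 °C before imaging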
switch fluorescence ratio: 1
--
macromolecule sequence: TTTTGGAAGG
experimental target: ATP;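 also: ATP exposure 15 min at 22 °C before imaging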
switch fluorescence ratio: 1.02
--
macromolecule sequence: TCGATGTTGT
experimental target: ATP;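 also: ATP exposure 15 min at 22 °C before imaging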
switch fluorescence ratio: 0.987
--
macromolecule sequence: GGGGTTCAAA
experimental target: ATP;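 also: ATP exposure 15 min at 22 °C before imaging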
switch fluorescence ratio: 0.997
--
macromolecule sequence: CCGGACCACG
experimental target: ATP;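 also: ATP exposure 15 min at 22 °C before imaging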
switch fluorescence ratio: 1.01
--
macromolecule sequence: ACGTTTAGAA
experimental target: ATP;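 also: ATP exposure 15 min at 22 °C before imaging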
switch fluorescence ratio: 1.01
--
macromolecule sequence: AGATGAGGGA
experimental target: ATP;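 also: ATP exposure 15 min at 22 °C before imaging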
switch fluorescence ratio: 1.02
--
macromolecule sequence: TCGGATAGCT
experimental target: ATP;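 also: ATP exposure 15 min at 22 °C before imaging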
switch fluorescence ratio: 1.02
--
macromolecule sequence: GAGAGTGAAT
experimental target: ATP;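 also: ATP exposure 15 min at 22 °C before imaging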
switch fluorescence ratio: 1.01
--
macromolecule sequence: TGCGGGGAGA
experimental target: ATP;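 also: ATP exposure 15 min at 22 °C before imaging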
switch fluorescence ratio: 1.02

====

Property: switch fluorescence ratio; scope: individual sequences
- Test system: ATP;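 also: ATP exposure 15 min at 22 °C before imaging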
- procedure summary: switch fluorescence ratio, 500 uM ATP over buffer (Cy3 cluster intensity, sum of 5 cycles each) (fold (ratio)); higher = stronger signal-on switching upon ATP binding; sequences stand for … in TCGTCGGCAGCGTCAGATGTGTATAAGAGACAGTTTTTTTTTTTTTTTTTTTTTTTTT…TC
- condition label: aptamer strand: ATP DNA aptamer (quencher-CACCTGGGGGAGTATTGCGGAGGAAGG + anchor), 100 nM annealed; ATP concentration: 500 uM

macromolecule sequence: TTTCTACTCG
switch fluorescence ratio: 0.995
--
macromolecule sequence: ATTTACTGCG
switch fluorescence ratio: 1.01
--
macromolecule sequence: GGGTATGTAG
switch fluorescence ratio: 0.986
--
macromolecule sequence: GGGGGTTACC
switch fluorescence ratio: 0.988
--
macromolecule sequence: TTTTCTTCTT
switch fluorescence ratio: 1.02
--
macromolecule sequence: AGGCGGAAGT
switch fluorescence ratio: 1.01
--
macromolecule sequence: CCGGGAAATT
switch fluorescence ratio: 1.22
--
macromolecule sequence: TCGGGGGCGT
switch fluorescence ratio: 1.03
--
macromolecule sequence: TCGGAGAGGG
switch fluorescence ratio: 0.974
--
macromolecule sequence: GACTTATGAG
switch fluorescence ratio: 1.01
--
macromolecule sequence: TTGTCATGAT
switch fluorescence ratio: 1.01
--
macromolecule sequence: GAGTGCTGTT
switch fluorescence ratio: 1.02
--
macromolecule sequence: CAGGTAGTTG
switch fluorescence ratio: 1
--
macromolecule sequence: GGAGGGGGAC
switch fluorescence ratio: 3.13
--
macromolecule sequence: TGGGAATGCG
switch fluorescence ratio: 1.01
--
macromolecule sequence: CATTATTATT
switch fluorescence ratio: 0.998
--
macromolecule sequence: TCCATTGAAC
switch fluorescence ratio: 1.02
--
macromolecule sequence: GCGAGTACCG
switch fluorescence ratio: 1.02

====

- Tested on: ATP;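 also: ATP exposure 15 min at 22 °C before imaging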
- procedure summary: switch fluorescence ratio, 500 uM ATP over buffer (Cy3 cluster intensity, sum of 5 cycles each) (fold (ratio)); higher = stronger signal-on switching upon ATP binding; sequences stand for … in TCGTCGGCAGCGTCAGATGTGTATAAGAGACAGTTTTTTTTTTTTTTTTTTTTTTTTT…TC
- condition label: aptamer strand: ATP DNA aptamer (quencher-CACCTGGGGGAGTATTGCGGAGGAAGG + anchor), 100 nM annealed; ATP concentration: 500 uM
Entries annotated with measured switch fluorescence ratio

macromolecule sequence: TCGGAGTAG
experimental target: ATP;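 also: ATP exposure 15 min at 22 °C before imaging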
switch fluorescence ratio: 1.04
//
macromolecule sequence: AGGGCTATGT
experimental target: ATP;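 also: ATP exposure 15 min at 22 °C before imaging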
switch fluorescence ratio: 0.98
//
macromolecule sequence: CGTGCTGGAC
experimental target: ATP;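 also: ATP exposure 15 min at 22 °C before imaging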
switch fluorescence ratio: 1.09
//
macromolecule sequence: AAGATGATGG
experimental target: ATP;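 also: ATP exposure 15 min at 22 °C before imaging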
switch fluorescence ratio: 1.01
//
macromolecule sequence: TTGATTAGAT
experimental target: ATP;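 also: ATP exposure 15 min at 22 °C before imaging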
switch fluorescence ratio: 1.01
//
macromolecule sequence: TTTGCAAGTA
experimental target: ATP;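 also: ATP exposure 15 min at 22 °C before imaging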
switch fluorescence ratio: 1.2
//
macromolecule sequence: GAAATTTTGC
experimental target: ATP;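 also: ATP exposure 15 min at 22 °C before imaging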
switch fluorescence ratio: 0.995
//
macromolecule sequence: CGAGCATTGA
experimental target: ATP;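 also: ATP exposure 15 min at 22 °C before imaging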
switch fluorescence ratio: 1.12
//
macromolecule sequence: TGCAGGGTGG
experimental target: ATP;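 also: ATP exposure 15 min at 22 °C before imaging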
switch fluorescence ratio: 1.05
//
macromolecule sequence: AATCGCTTGG
experimental target: ATP;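 also: ATP exposure 15 min at 22 °C before imaging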
switch fluorescence ratio: 0.997
//
macromolecule sequence: TCACTTAGAA
experimental target: ATP;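 also: ATP exposure 15 min at 22 °C before imaging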
switch fluorescence ratio: 1.04

====

- System: ATP;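 also: ATP exposure 15 min at 22 °C before imaging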
- procedure summary: switch fluorescence ratio, 500 uM ATP over buffer (Cy3 cluster intensity, sum of 5 cycles each) (fold (ratio)); higher = stronger signal-on switching upon ATP binding; sequences stand for … in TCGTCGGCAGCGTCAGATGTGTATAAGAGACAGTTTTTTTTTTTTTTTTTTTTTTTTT…TC
- condition label: aptamer strand: ATP DNA aptamer (quencher-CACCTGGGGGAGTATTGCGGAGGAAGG + anchor), 100 nM annealed; ATP concentration: 500 uM
# switch fluorescence ratio >= 1 gives 1.0, anything below gives 0.0

macromolecule sequence: GTTGTTGCAA
qualitative label: 1.0

macromolecule sequence: TTCTTAGTGT
qualitative label: 0.0

macromolecule sequence: CCATGGGGTG
qualitative label: 1.0

macromolecule sequence: GCGGTTCTC
qualitative label: 1.0

macromolecule sequence: AATGTTTATC
qualitative label: 1.0

macromolecule sequence: TTTTGGGAAT
qualitative label: 1.0

====

- System: ATP;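 also: ATP exposure 15 min at 22 °C before imaging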
- procedure summary: switch fluorescence ratio, 500 uM ATP over buffer (Cy3 cluster intensity, sum of 5 cycles each) (fold (ratio)); higher = stronger signal-on switching upon ATP binding; sequences stand for … in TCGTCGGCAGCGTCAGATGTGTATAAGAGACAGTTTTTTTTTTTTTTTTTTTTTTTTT…TC
- condition label: aptamer strand: ATP DNA aptamer (quencher-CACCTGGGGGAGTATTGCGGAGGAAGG + anchor), 100 nM annealed; ATP concentration: 500 uM
Catalogue of switch fluorescence ratio values
quantity kind: switch fluorescence ratio

macromolecule sequence: TGCGCACGGG
result: 1.03
--
macromolecule sequence: GTGCTATCTA
result: 1
--
macromolecule sequence: CTGGGAGGGA
result: 0.991
--
macromolecule sequence: TGGGACGATC
result: 1.05
--
macromolecule sequence: TGGCTTTGTT
result: 0.989
--
macromolecule sequence: TGGGTTTGC
result: 0.98
--
macromolecule sequence: CATTTCGTAA
result: 1.18
--
macromolecule sequence: GACCGATTGT
result: 1.03
--
macromolecule sequence: CTTCAGGGAA
result: 1.01
--
macromolecule sequence: GTAACGGCCG
result: 1.16
--
macromolecule sequence: TAGGGTTCTT
result: 1.03
--
macromolecule sequence: GGAAGGGGGG
result: 1.01
--
macromolecule sequence: TGACGTTATG
result: 1
--
macromolecule sequence: TTTAGATATA
result: 1.03
--
macromolecule sequence: TTGTGGGTAC
result: 1
--
macromolecule sequence: CAATGTTGAG
result: 1
--
macromolecule sequence: GATCGATTTG
result: 0.998
--
macromolecule sequence: AGGGGACTTC
result: 1.04
--
macromolecule sequence: TTCACGGCCT
result: 1.03
--
macromolecule sequence: ACATATCCGT
result: 1.01
--
macromolecule sequence: TAAGGTAGGT
result: 0.993
--
macromolecule sequence: ATTAATTATC
result: 0.993
--
macromolecule sequence: TTTGATCGGG
result: 0.978
--
macromolecule sequence: TTAGCAGCGT
result: 1
--
macromolecule sequence: GGCCTTTATT
result: 1.01
--
macromolecule sequence: TGCTTGTTTT
result: 0.991
--
macromolecule sequence: CCCTCTCGGT
result: 1.04
--
macromolecule sequence: TGGAAATCGT
result: 1.07
--
macromolecule sequence: GTTATTTACT
result: 1.02
--
macromolecule sequence: CATAATTAGT
result: 0.994
--
macromolecule sequence: TGGGGTAGCG
result: 0.998
--
macromolecule sequence: CTTAAAGTCG
result: 0.981
--
macromolecule sequence: TCTCTTTGTG
result: 1.02
--
macromolecule sequence: CGTTGTATGG
result: 1.01
--
macromolecule sequence: ATACGTCGGC
result: 0.984
--
macromolecule sequence: AGTGATGAAG
result: 0.996
--
macromolecule sequence: TTTACGGTAA
result: 1.15
--
macromolecule sequence: GAGGAGCGGT
result: 1
--
macromolecule sequence: TGGGGTTCAG
result: 1.01
--
macromolecule sequence: AGTTATGTTA
result: 1
--
macromolecule sequence: TTATTTGCAT
result: 0.994
--
macromolecule sequence: CTGTGTGATG
result: 0.991
--
macromolecule sequence: TGGGTGGCGG
result: 0.945
--
macromolecule sequence: ATGGTATTTC
result: 0.989
--
macromolecule sequence: TGCTAGCCTG
result: 0.995
--
macromolecule sequence: ATCCGAACGG
result: 1.03
--
macromolecule sequence: ATTTACGAT
result: 1.02
--
macromolecule sequence: TTAATATAAG
result: 1.02
--
macromolecule sequence: AGGGGTATGT
result: 0.989
--
macromolecule sequence: TTCTCGGCTA
result: 1.56
--
macromolecule sequence: GATTTCAAAT
result: 1.02
--
macromolecule sequence: GGGGACAGAT
result: 0.991
--
macromolecule sequence: GGATTACTAA
result: 0.99
--
macromolecule sequence: TTTCACAGCT
result: 1.03
--
macromolecule sequence: TTTAAGGGAT
result: 1
--
macromolecule sequence: TTGGGGCCAT
result: 0.999
--
macromolecule sequence: AAAAGGCCGT
result: 1.02
--
macromolecule sequence: CACAACGGGA
result: 0.985
--
macromolecule sequence: AAGGGGGGGT
result: 0.999
--
macromolecule sequence: TTTGCGCGCG
result: 0.992
--
macromolecule sequence: TATTATGTAT
result: 0.982
--
macromolecule sequence: ATTGTGGGTT
result: 1
